Measured values drawn from the supplement of paper PMC3334620 for this set.

- measurement.target: Gcr1 (UniProt P07261)
- Sequence: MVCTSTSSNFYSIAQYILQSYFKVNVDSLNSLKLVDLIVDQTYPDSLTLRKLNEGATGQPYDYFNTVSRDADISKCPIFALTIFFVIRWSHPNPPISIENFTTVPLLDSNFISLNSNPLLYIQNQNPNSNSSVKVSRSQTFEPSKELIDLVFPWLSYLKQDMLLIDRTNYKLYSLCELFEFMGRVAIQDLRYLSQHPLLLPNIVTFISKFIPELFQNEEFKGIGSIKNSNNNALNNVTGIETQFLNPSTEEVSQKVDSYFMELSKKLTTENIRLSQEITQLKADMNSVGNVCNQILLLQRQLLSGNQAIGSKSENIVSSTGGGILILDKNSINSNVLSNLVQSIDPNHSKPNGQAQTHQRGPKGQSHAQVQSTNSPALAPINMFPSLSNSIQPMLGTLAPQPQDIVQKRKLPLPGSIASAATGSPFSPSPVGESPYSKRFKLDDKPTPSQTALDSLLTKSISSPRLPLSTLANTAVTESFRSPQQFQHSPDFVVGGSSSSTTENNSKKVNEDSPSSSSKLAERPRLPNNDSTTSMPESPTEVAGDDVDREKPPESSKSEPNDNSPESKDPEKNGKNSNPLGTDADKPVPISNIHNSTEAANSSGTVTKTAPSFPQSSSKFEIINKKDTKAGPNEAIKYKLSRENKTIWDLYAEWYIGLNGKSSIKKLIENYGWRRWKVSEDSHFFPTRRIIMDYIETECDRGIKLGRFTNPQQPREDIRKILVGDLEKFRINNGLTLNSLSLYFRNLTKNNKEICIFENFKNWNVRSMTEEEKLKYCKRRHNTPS
- experiment.summary: PBM E-score (8-mer binding enrichment) (E-score (-0.5 to 0.5)); higher = stronger / more preferred TF binding
- details: protein concentration: 100 nM; construct: GST-full length
Whole data set: some 33,000 sequences, median “E-score (-0.5 to 0.5)” near -0.011, cut for the highest 2% near 0.28. Shown is part of a subset that was picked to be rich in the highest values.
attribute.measured: PBM E-score

- AGAAGCCC: 0.386
- ACGAAGCG: 0.0293
- GACGCCCC: 0.0383
- AATGCCGA: -0.178

I have this sequence here, CGAAGCCC , and I need its recorded PBM E-score.
0.268

I have this sequence here, ATAAAGGG , and I need its recorded PBM E-score.
0.123

I have this sequence here, CACGCCCA , and I need its recorded PBM E-score.
-0.107

---

- measurement.target: Gcr1 (UniProt P07261)
- Sequence: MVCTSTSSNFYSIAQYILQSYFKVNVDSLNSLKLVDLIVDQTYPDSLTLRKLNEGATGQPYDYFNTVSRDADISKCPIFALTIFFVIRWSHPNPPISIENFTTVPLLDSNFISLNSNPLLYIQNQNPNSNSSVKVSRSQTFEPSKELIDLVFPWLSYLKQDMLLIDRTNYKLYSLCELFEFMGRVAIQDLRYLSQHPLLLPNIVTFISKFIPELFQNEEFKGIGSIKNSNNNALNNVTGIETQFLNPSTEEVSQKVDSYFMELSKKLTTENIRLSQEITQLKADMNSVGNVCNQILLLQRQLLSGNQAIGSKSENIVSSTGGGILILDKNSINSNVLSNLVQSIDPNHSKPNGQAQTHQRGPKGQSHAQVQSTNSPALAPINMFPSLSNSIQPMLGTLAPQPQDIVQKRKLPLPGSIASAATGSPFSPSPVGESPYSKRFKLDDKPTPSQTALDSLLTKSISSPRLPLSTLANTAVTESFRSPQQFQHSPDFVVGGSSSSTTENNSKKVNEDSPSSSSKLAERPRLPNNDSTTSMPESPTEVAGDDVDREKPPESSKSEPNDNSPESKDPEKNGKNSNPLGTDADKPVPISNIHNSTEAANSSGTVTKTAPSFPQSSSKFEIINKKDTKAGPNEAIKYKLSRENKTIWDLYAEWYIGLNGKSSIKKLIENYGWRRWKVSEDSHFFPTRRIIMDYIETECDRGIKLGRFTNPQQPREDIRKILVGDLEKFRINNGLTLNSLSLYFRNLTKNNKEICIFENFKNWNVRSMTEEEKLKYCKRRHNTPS
- experiment.summary: PBM E-score (8-mer binding enrichment) (E-score (-0.5 to 0.5)); higher = stronger / more preferred TF binding
- details: protein concentration: 100 nM; construct: GST-full length
In all, about 33,000 sequences were measured (“E-score (-0.5 to 0.5)”: median about -0.011, highest 2% from about 0.28 on). The full list was thinned out, with the highest values kept by preference.
attribute.measured: PBM E-score
// no unit, no text: just the number

* AGGCCTAG | -0.214
* ACTCACCC | -0.126

Read the next record carefully.
What PBM E-score appears in the records for this sequence with Gcr1 (UniProt P07261)? CGAGCGGA
-0.113
